Kindly supply the reported normalised response values for the records listed here.
- Test system: MDA-MB-231
- Measurement protocol: normalised response (% of control), CellTox Green; higher = less cell death (100 = DMSO, 0 = benzethonium chloride kill control)
- Run conditions: incubation time: 72 h
Answers are plain numbers, in %.

The examples below pair each entry with its known result.
Compound | normalised response [%]
N#Cc1ccc(C(c2ccc(C#N)cc2)n2cncn2)cc1 [Letrozole] (100 nM) | 79
COc1cc2nccc(Oc3ccc(NC(=O)Nc4cc(C)on4)c(Cl)c3)c2cc1OC [Tivozanib] (10000 nM) | 77.7
CCN(CC)CCCC(C)Nc1c2ccc(Cl)cc2nc2ccc(OC)cc12 (stereo unspecified) [Mepacrine] (5000 nM) | 81.8
CC[C@H](C)C(=O)O[C@H]1C[C@H](O)C=C2C=C[C@H](C)[C@H](CC[C@@H](O)C[C@@H](O)CC(=O)O)[C@H]21 [Pravastatin] (10000 nM) | 54.3

Dear colleague, could you send me normalised response for each of the items below? Thanks.
1. COc1cc2c(NC3CCN(C(C)C)CC3)nc(C3CCCCC3)nc2cc1OCCCN1CCCC1 [UNC0638] (1000 nM)
2. Cc1ccc(-c2cc(C(F)(F)F)nn2-c2ccc(S(N)(=O)=O)cc2)cc1 [Celecoxib] (100 nM)
3. Nc1nc2[nH]cc(CCc3ccc(C(=O)N[C@@H](CCC(=O)O)C(=O)O)cc3)c2c(=O)[nH]1 [Pemetrexed] (1000 nM)
4. CC(=O)Nc1cccc(-n2c(=O)n(C3CC3)c(=O)c3c(Nc4ccc(I)cc4F)n(C)c(=O)c(C)c32)c1 [Trametinib] (25 nM)
5. C=CCc1cccc(/C=N/NC(=O)CN2CCN(Cc3ccccc3)CC2)c1O [PAC-1] (1000 nM)

Marked response:
[81.7, 93.2, 88, 66.4, 107]

I'm hoping you can list normalised response for every compound here, please.
1. CCc1cncnc1N1CCN(Cc2nc3ccc(C(F)(F)F)cc3[nH]2)CC1 (1000 nM)
2. C=CC(=O)Nc1cc2c(Nc3ccc(F)c(Cl)c3)ncnc2cc1OCCCN1CCOCC1 [Canertinib] (10000 nM)
3. O=C(/C=C/c1cccnc1)NCCCCC1CCN(C(=O)c2ccccc2)CC1 [Daporinad] (1000 nM)
4. COc1cc2c(Oc3ccc4[nH]c(C)cc4c3F)ncnc2cc1OCCCN1CCCC1 [Cediranib] (1000 nM)
5. O=C(Cc1ccc(-c2ccc(OCCN3CCOCC3)cc2)cn1)NCc1ccccc1 [KX2-391] (100 nM)
6. C=CC(=O)Nc1cc2c(Nc3ccc(F)c(Cl)c3)ncnc2cc1OCCCN1CCOCC1 [Canertinib] (100 nM)
7. O=C(O)C(=O)O.[NH-][C@@H]1CCCC[C@H]1[NH-].[Pt+2] [Oxaliplatin] (100 nM)

Marked response:
1. 98.9
2. 13.5
3. 117
4. 117
5. 51.3
6. 107
7. 89.6

====

- System: MDA-MB-436
- Measurement protocol: normalised response (% of control), CellTox Green; higher = less cell death (100 = DMSO, 0 = benzethonium chloride kill control)
- Run conditions: incubation time: 72 h
Parameter measured: normalised response (%)
Answers are plain numbers, in %.

Example results:
Molecule | Experimental system | normalised response, %
O=C(/C=C/c1cccnc1)NCCCCC1CCN(C(=O)c2ccccc2)CC1 [Daporinad] (10 nM) | MDA-MB-436 | 93.7
O=C(O)C(=O)O.[NH-][C@@H]1CCCC[C@H]1[NH-].[Pt+2] [Oxaliplatin] (10000 nM) | MDA-MB-436 | 62
C=CC(=O)N1CCC[C@@H](n2nc(-c3ccc(Oc4ccccc4)cc3)c3c(N)ncnc32)C1 [Ibrutinib] (10 nM) | MDA-MB-436 | 100
COc1cc([C@@H]2c3cc4c(cc3[C@@H](O[C@@H]3O[C@@H]5CO[C@@H](c6cccs6)O[C@H]5[C@H](O)[C@H]3O)[C@H]3COC(=O)[C@H]23)OCO4)cc(OC)c1O [Teniposide] (1000 nM) | MDA-MB-436 | 90.5
O=C(O)C1(C(=O)O)CCC1.[NH2-].[NH2-].[Pt+2] [Carboplatin] (100 nM) | MDA-MB-436 | 103

Dear colleague, could you please provide normalised response for the molecules listed below?
1. CC[C@H](Nc1ncnc2[nH]cnc12)c1nc2cccc(F)c2c(=O)n1-c1ccccc1 [GS-1101] (10000 nM)
2. Cc1ccc(-c2cc(C(F)(F)F)nn2-c2ccc(S(N)(=O)=O)cc2)cc1 [Celecoxib] (10000 nM)

Marked response:
111
99.8
